All values here come from ChEMBL document CHEMBL1961873.

- target system: Rho-associated protein kinase 2 (Homo sapiens) (UniProt O75116)
- Sequence (O75116 whole entry, looked up): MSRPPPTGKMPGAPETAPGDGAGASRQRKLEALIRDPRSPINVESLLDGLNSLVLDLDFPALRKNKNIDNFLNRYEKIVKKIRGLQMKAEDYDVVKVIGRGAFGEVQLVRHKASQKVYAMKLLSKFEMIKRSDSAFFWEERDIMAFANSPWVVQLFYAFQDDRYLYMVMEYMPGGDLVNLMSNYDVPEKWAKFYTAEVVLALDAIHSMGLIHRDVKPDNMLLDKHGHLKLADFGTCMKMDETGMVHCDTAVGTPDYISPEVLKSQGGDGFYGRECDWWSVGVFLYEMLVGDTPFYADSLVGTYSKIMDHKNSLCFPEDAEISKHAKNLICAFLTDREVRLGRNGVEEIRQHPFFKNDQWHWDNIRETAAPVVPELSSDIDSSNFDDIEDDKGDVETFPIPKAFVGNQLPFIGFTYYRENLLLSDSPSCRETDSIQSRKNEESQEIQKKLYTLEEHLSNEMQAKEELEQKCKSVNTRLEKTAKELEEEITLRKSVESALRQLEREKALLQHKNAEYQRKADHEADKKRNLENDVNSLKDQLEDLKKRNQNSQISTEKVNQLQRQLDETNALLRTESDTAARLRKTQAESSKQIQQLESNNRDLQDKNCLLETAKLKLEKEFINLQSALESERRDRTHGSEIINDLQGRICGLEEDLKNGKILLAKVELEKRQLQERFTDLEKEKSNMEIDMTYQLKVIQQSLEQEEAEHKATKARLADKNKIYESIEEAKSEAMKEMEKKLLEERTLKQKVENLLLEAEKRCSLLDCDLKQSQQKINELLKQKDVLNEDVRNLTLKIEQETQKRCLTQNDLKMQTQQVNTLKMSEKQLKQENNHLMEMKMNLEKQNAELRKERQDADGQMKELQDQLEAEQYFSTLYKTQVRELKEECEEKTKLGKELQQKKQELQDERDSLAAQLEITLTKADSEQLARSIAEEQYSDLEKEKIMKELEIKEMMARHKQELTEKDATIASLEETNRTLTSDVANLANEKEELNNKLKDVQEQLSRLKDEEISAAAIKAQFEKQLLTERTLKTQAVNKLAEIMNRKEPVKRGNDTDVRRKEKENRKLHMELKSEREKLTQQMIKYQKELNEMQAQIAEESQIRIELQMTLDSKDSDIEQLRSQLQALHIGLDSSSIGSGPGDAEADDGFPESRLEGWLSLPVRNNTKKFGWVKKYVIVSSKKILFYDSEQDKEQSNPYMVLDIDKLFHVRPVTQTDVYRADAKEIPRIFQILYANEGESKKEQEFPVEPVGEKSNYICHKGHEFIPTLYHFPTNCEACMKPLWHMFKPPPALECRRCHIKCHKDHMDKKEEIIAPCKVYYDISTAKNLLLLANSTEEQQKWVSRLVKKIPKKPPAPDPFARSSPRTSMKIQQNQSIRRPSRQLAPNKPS
- condition: at 1 µM
- Description: GSK_PKIS: ROCK2 mean inhibition at 1 uM [Nanosyn]
measure: inhibition (%)
Note: unit % is implicit; provide only the numeric part.

Solved cases (6 shown):
molecule=Cc1nn(C)c2cc(N(C)c3ccnc(Nc4cccc(S(N)(=O)=O)c4)n3)ccc12 reported_measurement=3.32
molecule=Cc1cc(O)cc(C)c1/C=C/c1cncc(-c2nn[nH]n2)c1 reported_measurement=2.33
molecule=COc1cc2ncn(-c3cc(O[C@H](C)c4ccccc4Cl)c(C(N)=O)s3)c2cc1OC reported_measurement=13.6
molecule=NC(=O)c1cccc(Nc2nccc(Nc3cccc4[nH]ncc34)n2)c1 reported_measurement=13.4
molecule=c1cnn2ncc(-c3ccnc(Nc4ccc5c(c4)OCCO5)n3)c2c1 reported_measurement=19.1
molecule=CCn1c(-c2nonc2N)nc2c(C#CC(C)(C)O)nc(CN3CCCC3)cc21 reported_measurement=1.51

q: Look up and state reported inhibition for COc1ccccc1Nc1ncc(-c2ccccc2)o1
a: 3.77

q: Look up and state reported inhibition for Cn1cc(C=C2C(=O)Nc3cccnc32)c2ccccc21
a: 8.3

q: Look up and state reported inhibition for COc1cccc(-n2ncc3c(N/N=C/c4cccc(F)c4)ncnc32)c1
a: 2.56

q: Look up and state reported inhibition for CCCN1CCC(Oc2cc(Nc3nc(Nc4cccc(F)c4C(N)=O)c4cc[nH]c4n3)c(OC)cc2Cl)CC1
a: 7.48

q: Look up and state reported inhibition for CCn1c(-c2nonc2N)nc2ccncc21
a: 0.99

q: Look up and state reported inhibition for COc1ccc(-c2ccncc2)cc1C(N)=O
a: 6.03

q: Look up and state reported inhibition for Cc1ccc(NC(=O)c2ccnc(N3CCCC3)c2)cc1-c1ccc(C(=O)NCC2CC2)cc1
a: 7.89

q: Look up and state reported inhibition for COc1ccc2cc(-c3c(-c4ccncc4)nc(-c4ccc([S+](C)[O-])cc4)n3C)ccc2c1 (stereo unspecified)
a: -0.11
